The origin of these recorded values is PubChem BioAssay.

List of inhibition values.
testDescription: endothelial E-selectin expression blockers – imaging, HUVEC, immunofluorescence, MLSMR starter and 10KST1 sets, primary screen (AID 487);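 also: signal is fraction of cell area covered by stained E-selectin grains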
setupConditions: HUVEC TNFalpha-induced E-selectin immunofluorescence imaging, at 2 µM; hits give high values
Calls of active or inactive are those of the source.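 The calls were made as follows: active = visually confirmed hit in the image check and inhibition above 20%; inconclusive = visually confirmed hit but inhibition not above 20%; inactive = no visual hit in the image check.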
valueKind: inhibition

> print(dat)
                                    molecule      reportedvalue
 1  COc1ccc(Br)cc1CNC(=O)C1CCCN(S(C)(=O)=O)C1 (stereo not drawn)   -129% (inactive)
 2  Cc1nc(C)c(C(=O)C2=C(O)C(=O)N(CCCn3ccnc3)C2c2ccccc2)s1 (stereo not drawn)   39.5% (inactive)
 3  COc1ccc2cc(CN(CCO)C(=O)c3ccccc3F)c(=O)[nH]c2c1    -93% (inactive)
 4             CC(C)(C)C(=O)/C=C(\N)c1ccccn1  -33.9% (inactive)
 5  Cc1ccc(Br)cc1S(=O)(=O)N1CCN(c2ccccc2)CC1  -51.5% (inactive)
 6  Cc1ccccc1NS(=O)(=O)c1cc(S(C)(=O)=O)ccc1Cl  -43.9% (inactive)
 7  COc1ccccc1N1CCN(C(=O)CN(Cc2ccc(Cl)cc2)S(C)(=O)=O)CC1   -130% (inactive)
 8  CCOc1ccc(NCc2nnc(SCC(=O)Nc3cc(C)on3)n2-c2ccccc2OC)cc1   41.6% (inactive)
 9     COc1ccc(C)cc1NC(=O)CSc1nnnn1Cc1ccccc1    8.3% (inactive)
10  O=S1(=O)CC(N2CCCCC2)C(N2CCCCC2)C1 (stereo not drawn)  -31.5% (inactive)
11  CCCCCn1c(N2CCN(Cc3ccccc3)CC2)nc2c1c(=O)[nH]c(=O)n2C  -13.6% (inactive)
12  COC(=O)c1ccc(NC(=O)C2CC(=O)N(c3cc(C)ccc3C)C2)cc1 (stereo not drawn)  -29.9% (inactive)
13  O=C(CN1CCC(NC(=O)c2ccc(F)cc2)CC1)NCc1ccccc1F   -192% (inactive)
14  O=C(NCCC1=CCCCC1)N[C@@H](Cc1ccccc1)C(=O)O  -24.3% (inactive)
15  CCN(CC)CCCN1C(=O)C(=O)/C(=C(/O)c2ccc3c(c2)OCO3)C1c1ccccn1 (stereo not drawn)  -18.3% (inactive)
16   CCCCOC(=O)n1c(SCC(=O)N(CC)CC)nc2ccccc21     10% (inactive)
17  Cc1cccc(-c2c3c(=O)n(C)c(=O)n(C)c3cn2-c2ccc(O)cc2)c1  -49.7% (inactive)
18       c1ccc(-c2cnc(CSc3ncnc4sccc34)o2)cc1   -7.2% (inactive)
